Measured values drawn from PubChem BioAssay for this set.

# Tested on: Hepatitis C virus NS3 helicase
# Test Details: HCV NS3 helicase inhibitors, primary screen, biochemical, fluorescence polarization, LOPAC1280 library (AID 687035)
# Details: Purified HCV NS3 helicase, Cy5-dT15 ssDNA binding fluorescence polarization; active compounds read high; concentration not given here
inhibition listing for selected compounds.

| Compound | inhibition / % |
| --- | --- |
| O=c1cc(N2CCOCC2)oc2c(-c3ccccc3)cccc12 | -3 |
| CC1CCN=C(N)S1 (configuration not stated) | -2 |
| O=C(O)c1ccccc1Nc1cccc(OCc2ccc3ccccc3n2)c1 | 0 |
| Nc1ncnc2nc(-c3ccc(N4CCOCC4)nc3)cc(-c3cccc(Br)c3)c12 | -6 |
| O=Nc1c(-c2c(O)[nH]c3cc(Br)ccc23)[nH]c2ccccc12 | 2 |
| CCCN(CC1CC1)c1nc(C)nc(Nc2c(Cl)cc(Cl)cc2Cl)c1Cl | -2 |
| Cc1cnc(C(=O)NCCc2ccc(S(=O)(=O)NC(=O)NC3CCCCC3)cc2)cn1 | -1 |
| N=C(N)SCCc1cnc[nH]1 | -3 |
| NC(N)=NC(N)=Nc1cccc(Cl)c1 | -4 |
| S=C(S)OC1CC2CC1C1CCCC21 (configuration not stated) | -2 |
| CC[C@H](NC(=O)c1c(C)c(-c2ccccc2)nc2ccccc12)c1ccccc1 | 1 |
| c1ccc(C(NCc2cccnc2)(c2ccccc2)c2ccccc2)cc1 | 0 |
